Just for reference, PubChem BioAssay (NCI) is where these values come from.

Below, each entry is listed alongside its reported growth inhibition.
- protocol: NCI Yeast Anticancer Drug Screen. Data for the sgs1 mgt1 strain (AID 161);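 note: 0% = growth of cultures given vehicle only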
- conditionSet: S. cerevisiae sgs1 mgt1 strain, at 5.0 µM (retest, dose inferred, filed as 0.5), active compounds read high
Compounds without any hit were thinned out: in the full panel of roughly 79,000, 15% have a hit.
Kindly provide the numeric value in % only, without the unit symbol.

{"compound": "O=S(=O)(Nc1ccccn1)c1ccc(N=Cc2c3ccccc3nc3cc(Cl)ccc23)cc1", "unitTag": "%", "reportedMeasurement": 1}
{"compound": "CC(=O)/C(=C\\c1ccco1)C(=O)Nc1ccccc1", "unitTag": "%", "reportedMeasurement": 13}
{"compound": "S=P([S][Sn]([S]P(=S)(c1ccccc1)c1ccccc1)([c]1ccccc1)[c]1ccccc1)(c1ccccc1)c1ccccc1", "unitTag": "%", "reportedMeasurement": 33}

Exercise: // query growth inhibition value for entry N#Cc1cc([N+](=O)[O-])ccc1NC(=O)/C(=N/N)C(C(=O)c1ccc(Cl)c(Cl)c1)C1OC(=O)c2ccccc21 (configuration not stated)
Solution: 18

Exercise: // query growth inhibition value for entry CCCCCCCCCCCCOP(=O)(N1CC1(C)C)N1CC1(C)C (configuration not stated)
Solution: 1

Exercise: // query growth inhibition value for entry `C/C(=N/NC(N)=O)c1ccc(Cl)s1`
Solution: -1

Exercise: // query growth inhibition value for entry COc1cccc2c1C(=O)c1c(O)c3c(c(O)c1C2=O)C[C@@](O)(C(=O)CO)C[C@@H]3OC1CC(N(C)C)C(O)C(C)O1 (some centres not stated)
Solution: 97

Exercise: // query growth inhibition value for entry `CN(C)C(=S)/N=c1\ssc(=S)n1C`
Solution: 2

Exercise: // query growth inhibition value for entry `Fc1cccc(NC(=S)SCc2ccc(Cl)cc2)c1`
Solution: 12

Exercise: // query growth inhibition value for entry `O=C1C(Br)=C(C2CCCCC2)C(=O)c2ccccc21`
Solution: 78

Exercise: // query growth inhibition value for entry `CN(C)CCNC(=O)c1cccc2ccc(-c3ccc(-c4ccccc4)cc3)nc12`
Solution: -1

Exercise: // query growth inhibition value for entry `CCCCCC(/C=N/Nc1nc(C)cc(=O)[nH]1)=C\c1ccccc1`
Solution: 3

Exercise: // query growth inhibition value for entry `O=[N+]([O-])c1ccc(-c2cccc(Cl)c2)c([N+](=O)[O-])c1`
Solution: 13

Exercise: // query growth inhibition value for entry `O=C1c2ccccc2C(=O)c2c(Nc3cc4c5c(ccc6c7ccc8c9c(cc(Nc%10cccc%11c%10C(=O)c%10ccccc%10C%11=O)c(c3c56)c97)-c3ccccc3C8=O)C(=O)c3ccccc3-4)cccc21`
Solution: 2

Exercise: // query growth inhibition value for entry `N#Cc1c2c(c(N=[N+]=[N-])n3c1nc1ccccc13)CCCC2`
Solution: 45

Exercise: // query growth inhibition value for entry CC(C)(C)C(=O)OC(N)/C=C/c1ccccc1 (configuration not stated)
Solution: 13

Exercise: // query growth inhibition value for entry `Fc1ccc(NC(=S)SCc2ccc(Cl)c(Cl)c2)c(F)c1`
Solution: 6

Exercise: // query growth inhibition value for entry `CC(=O)Sc1ccccc1C(=O)NCc1ccc(Cl)cc1`
Solution: 2

Exercise: // query growth inhibition value for entry COc1cccc(C2c3cc4c(cc3OC(NNc3ccccc3)C2C)OCO4)c1O (configuration not stated)
Solution: 1

Exercise: // query growth inhibition value for entry `c1ccc2c(c1)ccc1ncccc12`
Solution: 0

###

- protocol: NCI Yeast Anticancer Drug Screen. Data for the mec2-1 strain (AID 157)
- conditionSet: S. cerevisiae mec2-1 strain, at 50.0 µM, active compounds read high
The panel holds about 79,000 compounds, 15% with a hit somewhere; the sample as a whole holds those more often.
Classes by growth inhibition: low (below 10%), moderate (10% to below 90%), high (90% or more)

Exercise: Category of `O=C(N/C(=C\c1cc(Cl)ccc1Cl)c1nc2ccc(Cl)cc2[nH]1)c1ccccc1` , please.
Solution: high

Exercise: Category of NC1=NC(c2ccccc2)CC(c2cc(Cl)cc(Br)c2O)=N1 (stereo unspecified) , please.
Solution: moderate

###

- protocol: NCI Yeast Anticancer Drug Screen. Data for the bub3 strain (AID 167)
- conditionSet: S. cerevisiae bub3 mutant strain, at 5.0 µM (retest, dose inferred, filed as 0.5), active compounds read high
This is part of a sample that, as a whole, favours compounds with a hit. Of some 79,000 tested, about 15% had one in any assay.
observedProperty: growth inhibition (%)
Kindly provide the numeric value in % only, without the unit symbol.

Exercise: // query growth inhibition value for entry `Nc1cc(=O)[nH]c(=S)[nH]1.[Pd]`
Solution: 3

Exercise: // query growth inhibition value for entry `S=C(N/N=C1/CCCC/C1=N/NC(=S)N1CCOCC1)N1CCOCC1`
Solution: 51

Exercise: // query growth inhibition value for entry CC(=O)c1c2c(cc3c1CC1(C3)Cc3cc4c(c(C(=O)O)c3C1)CCCC4)CCCC2 (stereo not given) (tested in a mixture with another compound)
Solution: 82

Exercise: // query growth inhibition value for entry `C[N+](C)(C)CC(=O)N/N=C/c1oc(-c2c(O)ccc3ccccc23)c(-c2c(O)ccc3ccccc23)c1[N+](=O)[O-]`
Solution: 44

Exercise: // query growth inhibition value for entry `CN(C)C(=O)/C=C/c1c[nH]c(=O)[nH]c1=O`
Solution: -73

Exercise: // query growth inhibition value for entry CC(O)c1c2ccccc2cc2ccccc12 (stereo not given)
Solution: -1

###

- protocol: NCI Yeast Anticancer Drug Screen. Data for the bub3 strain (AID 167)
- conditionSet: S. cerevisiae bub3 mutant strain, at 50.0 µM (retest, dose inferred, filed as 5.0), active compounds read high
The panel holds about 79,000 compounds, 15% with a hit somewhere; the sample as a whole holds those more often.
observedProperty: growth inhibition (%)
Kindly provide the numeric value in % only, without the unit symbol.

Solved entries (count: 10):
{"compound": "c1ccc2c3[nH]c(c2c1)=Nc1ccc(cc1)-c1nc2ccc(cc2o1)N=c1[nH]c(c2ccccc12)=Nc1ccc2nc(oc2c1)-c1ccc(cc1)N=3", "unitTag": "%", "reportedMeasurement": 95}
{"compound": "O=Cc1ccc2ccc3ccccc3c2c1", "unitTag": "%", "reportedMeasurement": 95}
{"compound": "O=C(O)C(Br)C(Br)C(=O)Nc1ccc(Cl)c(Cl)c1 (stereo not given)", "unitTag": "%", "reportedMeasurement": 100}
{"compound": "CC/C(=N\\O)c1ccc2cc(Br)c3ccccc3c2c1", "unitTag": "%", "reportedMeasurement": 87}
{"compound": "CN(C)N=Nc1c(-c2ccccc2)n[nH]c1-c1ccccc1", "unitTag": "%", "reportedMeasurement": 99}
{"compound": "CCC[CH2][Sn]([S][Sn]([CH2]CCC)([c]1ccccc1)[c]1ccccc1)([c]1ccccc1)[c]1ccccc1", "unitTag": "%", "reportedMeasurement": 87}
{"compound": "CCCCCCCCCCCCCCC(O)C[N+](C)(CCO)CCO (stereo not given)", "unitTag": "%", "reportedMeasurement": 99}
{"compound": "CN(C)c1ccc(C=Nc2ccc(OCCCCCCCCCCC(=O)O)cc2)cc1", "unitTag": "%", "reportedMeasurement": 84}
{"compound": "CC(C)(C)OC(=O)c1ccc(NCC2=C(Br)C(=O)C=CC2=O)cc1", "unitTag": "%", "reportedMeasurement": 96}
{"compound": "COc1ccc2c(c1)[n+]([O-])c(-c1ccc(Cl)cc1)c(N)[n+]2[O-]", "unitTag": "%", "reportedMeasurement": 99}

Exercise: // query growth inhibition value for entry `Nc1nnc2nc(CC(=O)c3ccccc3)/c(=C/C(=O)c3ccccc3)n12`
Solution: -5

Exercise: // query growth inhibition value for entry CC1CCC2(CC1)NC1=C(CC(C)CC1)C1=C2CC(C)CC1 (stereo not given)
Solution: 17

Exercise: // query growth inhibition value for entry `COC(=O)c1ccccc1NC(=O)C(=O)Cc1nc2c3c(ccc2[nH]c1=O)C(=O)c1ccccc1C3=O`
Solution: 99

Exercise: // query growth inhibition value for entry `COc1ccccc1NC(=O)CSC(N)=O`
Solution: 66

Exercise: // query growth inhibition value for entry COc1cccc(C2c3cc4c(cc3OC(NNc3ccccc3)C2C)OCO4)c1OC (stereo not given)
Solution: 94

Exercise: // query growth inhibition value for entry `Cc1cccc(O)c(=O)c1`
Solution: 98

Exercise: // query growth inhibition value for entry `O=C1c2cccc3cccc(c23)C1(Br)Br`
Solution: 97

Exercise: // query growth inhibition value for entry O=C(c1ccc(Cl)cc1)C1N=NCC1c1ccccc1 (stereo not given)
Solution: 85

###

- protocol: NCI Yeast Anticancer Drug Screen. Data for the bub3 strain (AID 167)
- conditionSet: S. cerevisiae bub3 mutant strain, at 5.0 µM (retest, dose inferred, filed as 0.5), active compounds read high
This is part of a sample that, as a whole, favours compounds with a hit. Of some 79,000 tested, about 15% had one in any assay.
observedProperty: growth inhibition (%)
Kindly provide the numeric value in % only, without the unit symbol.

Solved entries (count: 5):
{"molecule": "Nc1nc(-c2ccc(Cl)cc2)c(N=Nc2ccc(Br)cc2)s1", "reportedMeasurement": -17}
{"molecule": "O=C(Nc1ccc(F)c(Cl)c1)Oc1ccc(Br)cc1Br", "reportedMeasurement": -2}
{"molecule": "Cc1ccc(/[N+]([O-])=C/c2ccccc2)cc1", "reportedMeasurement": -12}
{"molecule": "CCCCC(CSC#N)SC#N (configuration not stated)", "reportedMeasurement": 16}
{"molecule": "COc1cc2c(cc1OC)C(=O)C(C)(c1ccccc1)NC2 (configuration not stated)", "reportedMeasurement": 2}

Exercise: // query growth inhibition value for entry `Nc1c(C(=O)O)cccc1[N+](=O)[O-]`
Solution: 1
